Source: ChEMBL document CHEMBL1140798

# system: Disintegrin and metalloproteinase domain-containing protein 17 (Homo sapiens)
recorded_metric: Ki (nM)

compound: CC#CCNc1ccc(S(=O)(=O)CCCS)cc1
result_units: nM
recorded_measurement: 4.5

I. CC#CCOc1ccc(S(=O)(=O)CCS)cc1
II. CC#CCOc1ccc(S(=O)(=O)[C@@H]2CCC[C@@H](S)C2)cc1
# input Between these two entries, I and II , state which has the higher Ki. Identify your selection by its label.
# output II

----------
# system: 72 kDa type IV collagenase (Homo sapiens, UniProt P08253)
# Sequence (P08253 whole entry): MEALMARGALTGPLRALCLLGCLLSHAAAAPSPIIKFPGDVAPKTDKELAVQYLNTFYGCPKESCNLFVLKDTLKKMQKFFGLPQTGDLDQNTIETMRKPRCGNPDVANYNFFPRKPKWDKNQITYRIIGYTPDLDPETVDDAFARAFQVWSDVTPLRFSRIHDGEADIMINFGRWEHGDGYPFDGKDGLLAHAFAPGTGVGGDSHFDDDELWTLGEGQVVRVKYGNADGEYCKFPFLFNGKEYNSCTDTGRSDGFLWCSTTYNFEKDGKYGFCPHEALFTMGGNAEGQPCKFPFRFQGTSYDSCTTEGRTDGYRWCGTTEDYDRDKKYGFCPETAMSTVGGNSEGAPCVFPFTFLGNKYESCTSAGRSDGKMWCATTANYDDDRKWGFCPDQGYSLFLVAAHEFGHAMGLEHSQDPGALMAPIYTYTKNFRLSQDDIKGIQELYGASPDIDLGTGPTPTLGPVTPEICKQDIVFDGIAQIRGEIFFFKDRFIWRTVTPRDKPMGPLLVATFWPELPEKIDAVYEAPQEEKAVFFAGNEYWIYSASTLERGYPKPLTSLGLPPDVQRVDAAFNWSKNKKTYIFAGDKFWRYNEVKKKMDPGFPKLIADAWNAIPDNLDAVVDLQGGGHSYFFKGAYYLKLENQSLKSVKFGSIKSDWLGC
recorded_metric: Ki (µM)
Quick reminder: number only, in µM, skip the unit.

I looked up CC#CCOc1ccc(S(=O)(=O)CCCS)cc1 and its Ki for 72 kDa type IV collagenase (Homo sapiens, UniProt P08253) was 1.3

----------
# system: Matrix metalloproteinase-9 (Homo sapiens)
# Sequence (P14780 whole entry): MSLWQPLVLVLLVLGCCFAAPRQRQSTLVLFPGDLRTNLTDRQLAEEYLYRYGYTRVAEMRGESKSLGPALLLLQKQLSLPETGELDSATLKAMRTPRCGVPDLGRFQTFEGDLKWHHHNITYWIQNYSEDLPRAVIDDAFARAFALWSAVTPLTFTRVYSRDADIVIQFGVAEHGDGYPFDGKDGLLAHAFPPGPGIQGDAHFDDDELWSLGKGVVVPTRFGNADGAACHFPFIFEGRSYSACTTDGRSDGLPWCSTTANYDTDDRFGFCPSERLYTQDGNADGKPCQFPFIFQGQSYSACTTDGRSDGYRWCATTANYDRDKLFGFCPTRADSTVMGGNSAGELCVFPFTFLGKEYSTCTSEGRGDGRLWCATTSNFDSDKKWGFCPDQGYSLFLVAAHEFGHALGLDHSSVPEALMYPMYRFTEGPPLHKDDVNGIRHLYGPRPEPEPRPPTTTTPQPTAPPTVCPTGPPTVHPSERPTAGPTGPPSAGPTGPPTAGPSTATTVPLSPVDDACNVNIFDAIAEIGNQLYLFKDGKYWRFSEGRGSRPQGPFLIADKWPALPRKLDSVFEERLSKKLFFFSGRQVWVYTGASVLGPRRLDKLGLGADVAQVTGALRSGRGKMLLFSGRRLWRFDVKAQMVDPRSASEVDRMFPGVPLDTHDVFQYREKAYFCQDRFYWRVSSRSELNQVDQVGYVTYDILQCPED
# test_protocol: Inhibition of MMP9
recorded_metric: pKi
pKi field: float, defined as -log10 of concentration (mol/L).

Item: CC#CCOc1ccc(S(=O)(=O)CCCS)cc1 | System: Matrix metalloproteinase-9 (Homo sapiens) | pKi: 5.20

----------
# system: Neutrophil collagenase (Homo sapiens)
# Sequence (P22894 whole entry): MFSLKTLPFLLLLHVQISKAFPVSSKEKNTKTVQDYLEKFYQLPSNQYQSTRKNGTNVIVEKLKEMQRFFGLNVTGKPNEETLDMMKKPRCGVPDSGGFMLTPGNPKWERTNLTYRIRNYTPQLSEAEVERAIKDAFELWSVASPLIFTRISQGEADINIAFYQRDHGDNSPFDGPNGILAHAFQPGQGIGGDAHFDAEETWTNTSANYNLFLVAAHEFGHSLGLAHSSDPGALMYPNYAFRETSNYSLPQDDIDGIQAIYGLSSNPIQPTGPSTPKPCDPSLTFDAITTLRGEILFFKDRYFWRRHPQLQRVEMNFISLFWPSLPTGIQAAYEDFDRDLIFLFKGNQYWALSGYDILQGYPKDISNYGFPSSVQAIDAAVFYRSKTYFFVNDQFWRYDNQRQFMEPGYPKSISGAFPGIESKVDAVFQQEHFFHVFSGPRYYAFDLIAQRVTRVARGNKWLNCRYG
# test_protocol: Inhibition of MMP8
recorded_metric: Ki (nM)
Please state the figure in nM; there is no need to write the unit.

In plain terms, CC#CCOc1ccc(S(=O)(=O)CCCS)cc1 has a documented Ki of 2700

----------
Protein target, amino acids: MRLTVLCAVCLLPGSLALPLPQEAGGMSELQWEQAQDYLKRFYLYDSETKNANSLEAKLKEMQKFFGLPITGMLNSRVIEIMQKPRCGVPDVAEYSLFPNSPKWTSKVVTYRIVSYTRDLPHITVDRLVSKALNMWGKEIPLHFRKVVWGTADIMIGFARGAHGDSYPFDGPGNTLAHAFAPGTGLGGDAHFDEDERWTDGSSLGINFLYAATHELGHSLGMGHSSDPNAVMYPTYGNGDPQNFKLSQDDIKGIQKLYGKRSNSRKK
recorded_metric: Ki

get_value(item= CC#CCOc1ccc(S(=O)(=O)CCCS)cc1 , readout=Ki) returns > 2500 nM

----------
# system: Disintegrin and metalloproteinase domain-containing protein 17 (Homo sapiens, UniProt P78536)
# Sequence (P78536 whole entry, the tested form may be a part): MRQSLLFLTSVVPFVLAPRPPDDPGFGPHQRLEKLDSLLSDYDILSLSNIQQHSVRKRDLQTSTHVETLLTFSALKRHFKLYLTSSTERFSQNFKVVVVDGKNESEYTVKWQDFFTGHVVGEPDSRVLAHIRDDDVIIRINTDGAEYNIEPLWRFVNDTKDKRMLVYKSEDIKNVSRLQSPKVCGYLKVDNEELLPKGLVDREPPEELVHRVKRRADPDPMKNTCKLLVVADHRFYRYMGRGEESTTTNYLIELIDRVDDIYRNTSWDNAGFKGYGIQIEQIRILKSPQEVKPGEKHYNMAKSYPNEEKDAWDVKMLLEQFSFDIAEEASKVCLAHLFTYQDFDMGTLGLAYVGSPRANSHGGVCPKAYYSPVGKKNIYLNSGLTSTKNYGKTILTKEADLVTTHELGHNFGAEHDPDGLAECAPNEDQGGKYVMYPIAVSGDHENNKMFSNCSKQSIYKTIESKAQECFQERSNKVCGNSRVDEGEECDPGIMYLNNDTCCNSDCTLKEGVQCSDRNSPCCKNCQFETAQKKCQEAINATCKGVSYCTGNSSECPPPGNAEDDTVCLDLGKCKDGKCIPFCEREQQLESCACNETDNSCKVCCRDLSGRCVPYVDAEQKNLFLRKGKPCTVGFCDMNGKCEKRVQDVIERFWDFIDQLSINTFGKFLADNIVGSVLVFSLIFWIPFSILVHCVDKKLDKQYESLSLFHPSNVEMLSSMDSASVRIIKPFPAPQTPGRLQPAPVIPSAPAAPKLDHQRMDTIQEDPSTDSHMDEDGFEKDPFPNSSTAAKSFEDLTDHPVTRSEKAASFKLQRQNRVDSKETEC
pKi: −log10 of the molar value.
recorded_metric: pKi

molecule: CC#CCNc1ccc(S(=O)(=O)[C@@H]2CCC[C@@H](S)C2)cc1
pKi: 7.77

P. CC#CCOc1ccc(S(=O)(=O)C2CCC(S)C2)cc1 (stereo not drawn)
Q. CC#CCNc1ccc(S(=O)(=O)CCS)cc1
# input Choose between P and Q : whose measured pKi value is numerically larger? Kindly state the label of the option you pick.
# output Q
